These measurements were taken from ChEMBL document CHEMBL3826973.

# test: Binding affinity to RXRalpha-LBD E453A mutant (unknown origin) measured up to 300 sec by surface plasma resonance method
# Set-up: species or system Homo sapiens
outcome_measure: pKd
# pKd = -log10(concentration in molar units)

Record Cc1cc(=O)oc2c(/C=N/NC(=O)CSc3nc4ccccc4s3)c(O)ccc12 . Reported pKd: 5.44

----------
Parameter inhibition: see the listing below.
# assayed_system: Retinoic acid receptor RXR-alpha (Homo sapiens)
# Sequence (whole entry): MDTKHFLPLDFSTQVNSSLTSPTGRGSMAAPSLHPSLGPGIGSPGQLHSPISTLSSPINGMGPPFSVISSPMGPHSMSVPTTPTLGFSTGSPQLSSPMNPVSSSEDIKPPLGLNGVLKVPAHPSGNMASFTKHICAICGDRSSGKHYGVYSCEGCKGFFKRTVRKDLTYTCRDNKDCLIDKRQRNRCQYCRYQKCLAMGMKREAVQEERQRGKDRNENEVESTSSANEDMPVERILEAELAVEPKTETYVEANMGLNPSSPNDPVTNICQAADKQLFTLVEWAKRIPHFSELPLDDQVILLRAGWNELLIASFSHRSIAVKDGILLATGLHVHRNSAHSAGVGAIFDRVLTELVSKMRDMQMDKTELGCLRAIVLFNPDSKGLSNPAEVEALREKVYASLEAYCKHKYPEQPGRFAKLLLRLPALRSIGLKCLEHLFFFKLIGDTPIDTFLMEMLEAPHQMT
# test: Antagonist activity at RXRalpha (unknown origin) expressed in HEK293T cells assessed as inhibition of receptor transactivation at 10 uM after 12 hrs in presence of 9-cis-RA by luciferase reporter gene assay relative to control
# Assay type: cell-based
# condition_label: HEK-293T
Answer with a number only, understood to be in %.

Check out these entries, answers already filled in.
Record O=C(CSc1nc2ccccc2o1)N/N=C/c1cccc(O)c1 . Reported inhibition: 16.2

Record CCN(CC)c1ccc(/C=N/NC(=O)CSc2nc3ccccc3o2)cc1 . Reported inhibition: 19.3

Record O=C(CSc1nc2ccccc2o1)N/N=C/c1ccc(F)cc1O . Reported inhibition: 33.2

Record O=C(CSc1nc2ccccc2o1)N/N=C/c1ccc([N+](=O)[O-])cc1 . Reported inhibition: 12.7

Record COc1ccc(/C=N/NC(=O)CSc2nc3ccccc3o2)c(O)c1 . Reported inhibition: 57.3

Record O=C(CSc1nc2ccccc2o1)N/N=C/c1ccc(O)c(O)c1O . Reported inhibition: 24.3

New cases:
Record O=C(CSc1nc2ccccc2o1)N/N=C/c1ccc(OCc2ccccc2)cc1O . Reported inhibition: 43.9

Record O=C(CSc1nc2ccccc2o1)N/N=C/c1ccc(O)cc1O . Reported inhibition: 25.2

Record O=C(CSc1nc2ccccc2o1)N/N=C/c1cccc(O)c1O . Reported inhibition: 39.6

----------
# assayed_system: Retinoic acid receptor RXR-alpha (Homo sapiens)
# test: Binding affinity to RXRalpha-LBD (unknown origin) measured up to 300 sec by surface plasma resonance method
outcome_measure: pKd
# pKd = -log10(concentration in molar units)

Record CCN(CC)c1ccc(/C=N/NC(=O)CSc2nc3ccccc3o2)c(O)c1 (mixture of isomers) . Reported pKd: 6.04

----------
# assayed_system: Retinoic acid receptor RXR-alpha (Homo sapiens) (UniProt P19793)
# test: Antagonist activity at RXRalpha (unknown origin) expressed in HEK293T cells assessed as inhibition of receptor transactivation at 10 uM after 12 hrs in presence of 9-cis-RA by luciferase reporter gene assay relative to control
# Type: cell-based
# condition_label: HEK-293T
Quick rule: inhibition of at least 10% means MET, below that means NOT MET.

Query: Say whether CCN(CC)c1ccc(/C=N/NC(=O)CSc2nc3ccccc3o2)c(O)c1 (mixture of isomers) shows inhibition of 10% or more.
Response: MET

Now look at this entry.
Query: Say whether O=C(CSc1nc2ccccc2o1)N/N=C/c1ccc(OCc2ccccc2)cc1 shows inhibition of 10% or more.
Response: NOT MET

----------
Parameter inhibition: see the listing below.
# assayed_system: Retinoic acid receptor RXR-alpha (Homo sapiens) (UniProt P19793)
# Sequence (whole entry): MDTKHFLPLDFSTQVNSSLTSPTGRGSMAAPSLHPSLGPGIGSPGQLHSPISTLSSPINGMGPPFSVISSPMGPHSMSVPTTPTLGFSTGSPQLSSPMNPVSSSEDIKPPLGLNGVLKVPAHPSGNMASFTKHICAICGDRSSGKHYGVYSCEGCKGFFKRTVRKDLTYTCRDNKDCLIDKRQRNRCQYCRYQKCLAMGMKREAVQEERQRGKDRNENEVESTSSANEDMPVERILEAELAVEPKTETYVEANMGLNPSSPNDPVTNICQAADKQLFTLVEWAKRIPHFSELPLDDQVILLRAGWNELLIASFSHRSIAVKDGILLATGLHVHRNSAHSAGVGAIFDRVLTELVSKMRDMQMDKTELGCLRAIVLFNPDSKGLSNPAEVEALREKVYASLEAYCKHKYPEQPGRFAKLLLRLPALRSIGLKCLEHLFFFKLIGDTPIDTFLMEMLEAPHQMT
# test: Antagonist activity at RXRalpha (unknown origin) expressed in HEK293T cells assessed as inhibition of receptor transactivation at 10 uM after 12 hrs in presence of 9-cis-RA by luciferase reporter gene assay relative to control
# Format: cell-based
# condition_label: HEK-293T
Answer with a number only, understood to be in %.

Lab note: molecule O=C(CSc1nc2ccccc2o1)N/N=C/c1ccccc1F tested on Retinoic acid receptor RXR-alpha (Homo sapiens) (UniProt P19793); recorded inhibition was 13

New cases:
Lab note: molecule O=C(CSc1nc2ccccc2o1)N/N=C/c1cccc(F)c1 tested on Retinoic acid receptor RXR-alpha (Homo sapiens) (UniProt P19793); recorded inhibition was 13.8

Lab note: molecule Cc1cccc(/C=N/NC(=O)CSc2nc3ccccc3o2)c1 tested on Retinoic acid receptor RXR-alpha (Homo sapiens) (UniProt P19793); recorded inhibition was 47.9

Lab note: molecule CCN(CC)c1ccc(/C=N/NC(=O)CSc2nc3ccccc3o2)c(OC)c1 tested on Retinoic acid receptor RXR-alpha (Homo sapiens) (UniProt P19793); recorded inhibition was 17.9
